I'd be grateful if you could share measured Ratio IC50 for these entries.
Species: Ovis aries
assay_explanation: Selectivity index, ratio of IC50 for ovine COX1 to IC50 for ovine COX2
No unit in the answer, only the number.

For the compound CCN(CC)/[N+]([O-])=N\OCOC(=O)/C(=C/c1ccc(S(C)(=O)=O)cc1)c1cccc(Br)c1 , give its measured Ratio IC50 value. 0.03

Read off the recorded Ratio IC50 for CS(=O)(=O)c1ccc(/C=C(/C(=O)OCO/N=[N+](/[O-])N2CCCC2)c2cccc(Br)c2)cc1 0.22

Indicate the recorded Ratio IC50 value for this compound: CCN(CC)/[N+]([O-])=N\OCOC(=O)/C(=C/c1ccc(S(C)(=O)=O)cc1)c1ccc(F)cc1 0.43

* * *

observed_property: IC50 (nM)
Write the number in nM without appending the unit.

Would you please give the reported IC50 of CCN(CC)/[N+]([O-])=N\OCOC(=O)/C(=C/c1ccc(S(C)(=O)=O)cc1)c1ccc(F)cc1 with Prostaglandin G/H synthase 1 (Ovis aries, UniProt P05979)? 1000

* * *

Please provide measured Ratio IC50 for the entries that follow.
Species: Ovis aries
assay_explanation: Selectivity index, ratio of IC50 for ovine COX1 to IC50 for ovine COX2

Report Ratio IC50 for CS(=O)(=O)c1ccc(/C=C(/C(=O)OCO/N=[N+](/[O-])N2CCCC2)c2ccc(F)cc2)cc1 > 9.2

Query Ratio IC50 for CC(=O)Nc1ccc(/C(=C\c2ccc(S(C)(=O)=O)cc2)C(=O)OCO/N=[N+](/[O-])N2CCCC2)cc1 > 106

Report Ratio IC50 for CCN(CC)/[N+]([O-])=N\OCOC(=O)/C(=C/c1ccc(S(C)(=O)=O)cc1)c1ccc(NC(C)=O)cc1 > 5.9
